Quick reference: EC50 of the listed items.
measured.on: recombinant human nicotinic acid receptor (NAR) (Homo sapiens)
Sequence (Q8TDS4 whole entry): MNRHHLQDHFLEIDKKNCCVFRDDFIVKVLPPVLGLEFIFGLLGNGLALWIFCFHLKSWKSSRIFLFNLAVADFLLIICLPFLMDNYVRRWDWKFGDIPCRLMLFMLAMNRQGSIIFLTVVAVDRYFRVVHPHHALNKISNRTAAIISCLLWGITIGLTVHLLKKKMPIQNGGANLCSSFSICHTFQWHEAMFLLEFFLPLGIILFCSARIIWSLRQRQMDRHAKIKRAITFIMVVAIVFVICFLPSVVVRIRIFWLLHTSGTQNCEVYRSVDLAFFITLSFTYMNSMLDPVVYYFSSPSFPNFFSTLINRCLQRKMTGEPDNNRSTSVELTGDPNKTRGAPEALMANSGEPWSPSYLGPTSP
assay.summary: Nicotinic Acid Receptor Assay: inhibition of forskolin-stimulated cAMP accumulation in CHO cells (MesoScale Discovery cAMP kit)
Format: cell-based
experimental.conditions: CHO cells expressing recombinant human NAR; forskolin-stimulated cAMP; read-out: NA EC50 camp

compound="CCc1cc(=O)oc2nc(OCC#CC(C)OC)[nH]c(=O)c12 (stereo not drawn)" quantity_name=EC50 result="100 to 1000 nM"
compound=CCc1cc(=O)oc2nc(OCCCOc3ccccc3)[nH]c(=O)c12 quantity_name=EC50 result="100 to 1000 nM"
compound=CCc1cc(=O)oc2nc(OCc3cc(Cl)cc(Cl)c3)[nH]c(=O)c12 quantity_name=EC50 result="100 to 1000 nM"
compound=CCn1c(=O)[nH]c(=O)c2c(C)cc(=O)oc21 quantity_name=EC50 result="> 1000 nM"
compound=CCc1cc(=O)oc2nc(OCc3cc(-c4ccccc4Cl)no3)[nH]c(=O)c12 quantity_name=EC50 result="100 to 1000 nM"

// returns reported EC50 for input CCc1cc(=O)oc2nc(OCc3csc(-c4cccs4)n3)[nH]c(=O)c12
100 to 1000 nM

Reported EC50, compound CCCCc1c(-c2ccc(F)cc2)c(=O)oc2[nH]c(=O)[nH]c(=O)c12 : ____
> 1000 nM

Give the measured EC50 of O=c1[nH]c(=O)c2c(Cc3ccc(-c4ccccc4F)cc3)cc(=O)oc2[nH]1 .
100 to 1000 nM

I'd like to know its EC50. The compound in question is Cc1cccc(COc2nc3oc(=O)cc(Cc4ccccc4)c3c(=O)[nH]2)n1
> 1000 nM

What EC50 value was documented for this compound, O=c1[nH]c(=O)c2c3c(c(=O)oc2[nH]1)CCCCCC3 ?
> 1000 nM

# query: EC50 of entry O=c1[nH]c(=O)c2c(CC3CCNC3)cc(=O)oc2[nH]1 (stereo not drawn)
> 1000 nM

Consider the compound shown here: CC(C)(C)Cc1cc(=O)oc2[nH]c(=O)[nH]c(=O)c12 What is its recorded EC50?
> 1000 nM

Fill in: EC50 of CCc1cc(=O)oc2nc(OCc3ccccc3-c3ccc(F)c(C#N)c3)[nH]c(=O)c12 is ___
100 to 1000 nM
